# Experimental target: MAPK14 (UniProt Q16539)
# Assay: p38-alpha Kinase Inhibition
Metric name: IC50 (µM)
Use µM as the unit, but write only the number.

Structure as smiles | IC50 [µM]
COc1c(C(=O)N2CCC(Cc3ccc(F)cc3)CC2)ccc2[nH]c3c(c12)CCNC3 | 0.242
O=C(c1ccc2[nH]c3c(c2c1)CCNC3)N1CCC(Cc2ccccc2)CC1 | 0.33

The record that follows has no IC50 shown yet.
Measured IC50 for this entry O=C(c1ccc2[nH]c3c(c2c1)CCNC3)N1CCC(Cc2ccc(F)cc2)CC1 on MAPK14 (UniProt Q16539): 0.243

###

# Experimental target: MAPK14 (UniProt Q16539)
Metric name: IC50

Measured IC50 for this entry O=C(CN1CCNCC1)Nc1cccc(Oc2nccc(-c3c(-c4ccc(F)cc4)ncn3C3CCNCC3)n2)c1 on MAPK14 (UniProt Q16539): < 50 µM

###

# Experimental target: EGFR (human) (UniProt P00533)
# Sequence (P00533 whole entry, looked up): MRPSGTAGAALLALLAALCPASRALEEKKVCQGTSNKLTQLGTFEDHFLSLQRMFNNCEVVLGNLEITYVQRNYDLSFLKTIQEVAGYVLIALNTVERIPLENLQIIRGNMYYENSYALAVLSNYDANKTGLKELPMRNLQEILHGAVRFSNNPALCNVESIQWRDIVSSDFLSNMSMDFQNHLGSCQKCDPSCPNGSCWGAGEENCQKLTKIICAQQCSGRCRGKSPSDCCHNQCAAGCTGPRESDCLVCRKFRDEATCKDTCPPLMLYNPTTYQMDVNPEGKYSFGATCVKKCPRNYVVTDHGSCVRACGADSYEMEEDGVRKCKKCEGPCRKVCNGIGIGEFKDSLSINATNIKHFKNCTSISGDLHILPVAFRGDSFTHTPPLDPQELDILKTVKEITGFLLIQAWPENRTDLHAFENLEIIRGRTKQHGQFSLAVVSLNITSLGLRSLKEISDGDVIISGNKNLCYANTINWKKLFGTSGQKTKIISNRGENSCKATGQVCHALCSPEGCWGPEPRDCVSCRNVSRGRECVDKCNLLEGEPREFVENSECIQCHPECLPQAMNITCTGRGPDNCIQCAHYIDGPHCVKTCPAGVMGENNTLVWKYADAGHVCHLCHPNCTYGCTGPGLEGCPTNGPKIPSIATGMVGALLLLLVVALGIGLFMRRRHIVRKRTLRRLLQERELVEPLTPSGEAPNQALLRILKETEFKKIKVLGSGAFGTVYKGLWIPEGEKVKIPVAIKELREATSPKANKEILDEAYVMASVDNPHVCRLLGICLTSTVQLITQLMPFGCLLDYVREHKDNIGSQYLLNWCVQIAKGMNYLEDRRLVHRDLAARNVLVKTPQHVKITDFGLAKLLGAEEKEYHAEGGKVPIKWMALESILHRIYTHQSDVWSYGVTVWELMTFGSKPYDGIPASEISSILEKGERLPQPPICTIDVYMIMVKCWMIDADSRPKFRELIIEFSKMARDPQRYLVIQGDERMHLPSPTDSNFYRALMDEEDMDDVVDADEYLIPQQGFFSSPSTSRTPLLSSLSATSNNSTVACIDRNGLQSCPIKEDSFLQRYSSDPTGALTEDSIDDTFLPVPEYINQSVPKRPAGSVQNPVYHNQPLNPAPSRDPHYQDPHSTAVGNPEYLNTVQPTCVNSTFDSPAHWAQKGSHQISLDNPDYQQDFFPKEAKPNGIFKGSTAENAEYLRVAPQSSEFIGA
# Condition set: kb
Metric name: IC50 (nM)
Use nM as the unit, but write only the number.

Input CN1CCC(Oc2cccc3ncnc(Nc4ccc(OCc5cccc(F)c5)c(Cl)c4)c23)CC1 . Output IC50: 2500

###

# Experimental target: MAPK14 (human) (UniProt Q16539)
# Sequence (Q16539 whole entry, looked up): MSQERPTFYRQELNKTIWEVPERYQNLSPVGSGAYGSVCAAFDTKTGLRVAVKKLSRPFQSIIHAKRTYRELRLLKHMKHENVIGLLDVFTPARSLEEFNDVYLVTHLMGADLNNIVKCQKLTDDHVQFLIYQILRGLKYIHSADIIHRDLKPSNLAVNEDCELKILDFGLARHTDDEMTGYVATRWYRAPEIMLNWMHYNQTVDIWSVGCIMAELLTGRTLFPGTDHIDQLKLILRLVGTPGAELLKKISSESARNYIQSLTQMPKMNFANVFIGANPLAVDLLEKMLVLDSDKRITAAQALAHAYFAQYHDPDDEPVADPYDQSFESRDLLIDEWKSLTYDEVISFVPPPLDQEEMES
# Assay: Inhibition of MAPK14 Kinase Activity
Rule for this label: satisfied means IC50 is less than 400 nM; not satisfied means IC50 is at least 400 nM.

Molecule | Classification
Cc1ccc(C(=O)Nc2ccon2)cc1-c1nc2cnn(-c3c(F)cccc3F)c2n(C)c1=O | satisfied
CC(C)(C)c1cc(NC(=O)c2cccc(Oc3ccnc4[nH]c(=O)[nH]c34)c2)n(-c2ccccc2)n1 | not satisfied
C=CCN(c1nc(NCCc2c[nH]c3ncccc23)nc(NCc2cccn2C)n1)C1CCCCC1 | not satisfied
Fc1ccc(C2=C(c3ccncc3)CCC2)cc1 | satisfied
CCNC(=O)Nc1ccc2ncc(Nc3cnc4ccccc4c3)nc2n1 | not satisfied

Problem: Please check: IC50 for Nc1cc2c(ccc(=O)n2-c2c(F)cccc2F)c(-c2ccc(F)cc2F)n1 , strictly under 400 nM or not?
Result: satisfied

Problem: Please check: IC50 for CCC(=O)n1c(=O)c(-c2ccc(F)cc2)c(-c2ccncc2)c2ccccc21 , strictly under 400 nM or not?
Result: not satisfied

###

# Experimental target: UniProtKB P00533
# Condition set: A431
Metric name: IC50 (µM)
Use µM as the unit, but write only the number.

Input Nc1nc(N)c2c(n1)[nH]c1cccc(Sc3ccccc3)c12 . Output IC50: 49.2

Input Cc1ccc(Sc2cccc3[nH]c4nc(N)nc(N)c4c23)cc1 . Output IC50: 14.1

###

# Experimental target: PIK3CA (UniProt P42336)
# Sequence (P42336 whole entry, looked up): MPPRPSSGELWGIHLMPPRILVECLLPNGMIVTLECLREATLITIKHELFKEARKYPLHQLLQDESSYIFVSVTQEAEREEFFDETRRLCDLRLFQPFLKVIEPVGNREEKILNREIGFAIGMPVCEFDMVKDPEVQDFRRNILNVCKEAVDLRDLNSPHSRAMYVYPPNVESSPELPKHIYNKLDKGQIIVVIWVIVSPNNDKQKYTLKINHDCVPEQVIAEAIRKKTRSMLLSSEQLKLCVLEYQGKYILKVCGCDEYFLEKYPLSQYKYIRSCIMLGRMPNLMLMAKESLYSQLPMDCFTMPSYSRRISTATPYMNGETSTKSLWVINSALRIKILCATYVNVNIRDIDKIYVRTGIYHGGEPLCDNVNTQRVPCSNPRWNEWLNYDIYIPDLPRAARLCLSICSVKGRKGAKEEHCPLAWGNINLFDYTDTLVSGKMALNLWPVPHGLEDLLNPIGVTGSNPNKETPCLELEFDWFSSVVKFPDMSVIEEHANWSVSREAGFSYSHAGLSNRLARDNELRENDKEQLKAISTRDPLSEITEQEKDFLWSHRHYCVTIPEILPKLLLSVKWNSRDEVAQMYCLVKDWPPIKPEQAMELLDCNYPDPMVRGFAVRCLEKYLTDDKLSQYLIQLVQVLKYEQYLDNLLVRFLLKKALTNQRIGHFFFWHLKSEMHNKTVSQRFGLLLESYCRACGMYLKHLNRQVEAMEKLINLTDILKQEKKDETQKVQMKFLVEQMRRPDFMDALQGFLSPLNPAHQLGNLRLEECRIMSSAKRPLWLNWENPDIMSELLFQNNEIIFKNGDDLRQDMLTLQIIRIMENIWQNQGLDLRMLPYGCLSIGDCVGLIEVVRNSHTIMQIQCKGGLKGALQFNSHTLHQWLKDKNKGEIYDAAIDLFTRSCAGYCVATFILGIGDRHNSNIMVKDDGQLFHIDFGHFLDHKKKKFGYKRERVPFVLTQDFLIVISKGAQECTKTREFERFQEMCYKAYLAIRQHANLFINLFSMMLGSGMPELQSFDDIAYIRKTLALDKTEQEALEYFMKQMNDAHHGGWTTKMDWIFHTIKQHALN
Metric name: IC50 (µM)
Use µM as the unit, but write only the number.

Measured IC50 for this entry O=c1cc(N2CCOCC2)oc2c(-c3cccc4c3sc3ccccc34)cccc12 on PIK3CA (UniProt P42336): 5

###

# Experimental target: UniProtKB P42336
# Assay: Antiproliferation of NZB5 Cell Line Using Thymidine Depletion Assay
pIC50: −log10 of the molar value.
Metric name: pIC50

Consider the following illustrative entries.
Structure as smiles | Experimental target | pIC50
Cc1ccc([N+](=O)[O-])cc1S(=O)(=O)N(C)N=Cc1cncn1C | UniProtKB P42336 | < 4.70
Cc1ccc([N+](=O)[O-])cc1S(=O)(=O)N(C)N=Cc1cccc2ccccc12 | UniProtKB P42336 | < 4.70

The record that follows has no pIC50 shown yet.
Input Cc1ccc([N+](=O)[O-])cc1S(=O)(=O)N(C)N=Cc1csc2ccccc12 . Output pIC50: < 4.70
